TESTED_SYSTEM: Glutamate receptor ionotropic, NMDA 2D (Rattus norvegicus) (UniProt Q62645)
Sequence (Q62645 whole entry): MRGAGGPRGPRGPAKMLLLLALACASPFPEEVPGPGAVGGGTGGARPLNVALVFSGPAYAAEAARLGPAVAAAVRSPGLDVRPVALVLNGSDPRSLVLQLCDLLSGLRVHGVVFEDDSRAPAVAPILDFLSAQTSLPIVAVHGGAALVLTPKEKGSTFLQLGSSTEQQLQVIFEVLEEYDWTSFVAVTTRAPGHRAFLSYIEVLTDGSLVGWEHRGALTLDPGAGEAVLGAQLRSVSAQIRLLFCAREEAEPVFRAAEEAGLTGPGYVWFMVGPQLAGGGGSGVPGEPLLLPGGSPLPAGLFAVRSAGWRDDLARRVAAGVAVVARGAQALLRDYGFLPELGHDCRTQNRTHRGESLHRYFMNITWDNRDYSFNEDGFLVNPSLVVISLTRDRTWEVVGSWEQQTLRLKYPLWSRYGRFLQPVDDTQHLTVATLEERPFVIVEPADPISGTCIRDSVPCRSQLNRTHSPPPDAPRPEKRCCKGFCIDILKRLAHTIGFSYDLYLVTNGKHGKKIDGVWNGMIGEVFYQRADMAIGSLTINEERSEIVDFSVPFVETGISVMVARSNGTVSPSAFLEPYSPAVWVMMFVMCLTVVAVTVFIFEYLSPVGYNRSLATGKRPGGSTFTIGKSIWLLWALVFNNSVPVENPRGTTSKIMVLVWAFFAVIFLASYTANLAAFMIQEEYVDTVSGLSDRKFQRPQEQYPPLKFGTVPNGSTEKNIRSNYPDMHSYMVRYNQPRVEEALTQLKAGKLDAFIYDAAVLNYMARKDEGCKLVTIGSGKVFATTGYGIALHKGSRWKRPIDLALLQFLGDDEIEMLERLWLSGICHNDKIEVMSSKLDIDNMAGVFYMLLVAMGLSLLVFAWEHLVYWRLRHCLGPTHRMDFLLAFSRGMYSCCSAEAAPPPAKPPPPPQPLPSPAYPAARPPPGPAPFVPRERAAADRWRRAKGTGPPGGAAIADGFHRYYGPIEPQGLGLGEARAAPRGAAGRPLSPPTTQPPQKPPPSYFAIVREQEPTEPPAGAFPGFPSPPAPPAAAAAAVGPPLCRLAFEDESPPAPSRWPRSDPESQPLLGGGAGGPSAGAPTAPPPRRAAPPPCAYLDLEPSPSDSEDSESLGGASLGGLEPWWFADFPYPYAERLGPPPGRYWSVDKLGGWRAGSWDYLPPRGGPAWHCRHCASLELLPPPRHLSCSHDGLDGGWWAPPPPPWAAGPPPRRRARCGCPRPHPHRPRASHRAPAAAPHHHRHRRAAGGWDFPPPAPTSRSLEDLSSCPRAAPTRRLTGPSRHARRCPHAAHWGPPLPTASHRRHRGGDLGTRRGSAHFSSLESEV
TEST_DESCRIPTION: Allosteric modulation of rat GluN2D expressed in Xenopus laevis oocytes assessed as L-glutamate/glycine-induced current response at 100 uM at holding potential -60 mV by two-electrode voltage clamp method relative to L-glutamate/glycine
Type: cell-based
MEASURED_METRIC: Activity (%)
Answers are plain numbers, in %.

Known Activity results, listed for orientation:
[[record]]
molecule = "CC(CCCc1ccc2cc(C(=O)O)ccc2c1)C(=O)O (racemic)"
experimental_value = 107

[[record]]
molecule = "CCC/C=C/c1ccc2cc(C(=O)O)ccc2c1"
experimental_value = 68

[[record]]
molecule = "CCCCOc1ccc2cc(C(=O)O)ccc2c1"
experimental_value = 57

[[record]]
molecule = "CC(C)CCCc1ccc2cc(C(=O)O)c(C(=O)O)cc2c1"
experimental_value = 24

[[record]]
molecule = "CC(C)C(=O)OCc1ccc2cc(C(=O)O)ccc2c1"
experimental_value = 42


Respectfully, I request Activity for each entry included below.
1. CC(CCCc1ccc2cc(C(=O)O)ccc2c1)CC(=O)O (racemic)
2. CC(C)CCCc1ccc2cc(O)c(C(=O)O)cc2c1
3. CC(C)COCc1ccc2cc(C(=O)O)ccc2c1
4. CC(C)CSCc1ccc2cc(C(=O)O)ccc2c1
5. O=C(O)c1ccc(CCc2ccc3cc(O)c(C(=O)O)cc3c2)cc1

**Result**
1. 71
2. 180
3. 72
4. 100
5. 92.6

---

TESTED_SYSTEM: Glutamate receptor ionotropic, NMDA 2C (Rattus norvegicus) (UniProt Q00961)
Sequence (Q00961 20-1237 limits assumed): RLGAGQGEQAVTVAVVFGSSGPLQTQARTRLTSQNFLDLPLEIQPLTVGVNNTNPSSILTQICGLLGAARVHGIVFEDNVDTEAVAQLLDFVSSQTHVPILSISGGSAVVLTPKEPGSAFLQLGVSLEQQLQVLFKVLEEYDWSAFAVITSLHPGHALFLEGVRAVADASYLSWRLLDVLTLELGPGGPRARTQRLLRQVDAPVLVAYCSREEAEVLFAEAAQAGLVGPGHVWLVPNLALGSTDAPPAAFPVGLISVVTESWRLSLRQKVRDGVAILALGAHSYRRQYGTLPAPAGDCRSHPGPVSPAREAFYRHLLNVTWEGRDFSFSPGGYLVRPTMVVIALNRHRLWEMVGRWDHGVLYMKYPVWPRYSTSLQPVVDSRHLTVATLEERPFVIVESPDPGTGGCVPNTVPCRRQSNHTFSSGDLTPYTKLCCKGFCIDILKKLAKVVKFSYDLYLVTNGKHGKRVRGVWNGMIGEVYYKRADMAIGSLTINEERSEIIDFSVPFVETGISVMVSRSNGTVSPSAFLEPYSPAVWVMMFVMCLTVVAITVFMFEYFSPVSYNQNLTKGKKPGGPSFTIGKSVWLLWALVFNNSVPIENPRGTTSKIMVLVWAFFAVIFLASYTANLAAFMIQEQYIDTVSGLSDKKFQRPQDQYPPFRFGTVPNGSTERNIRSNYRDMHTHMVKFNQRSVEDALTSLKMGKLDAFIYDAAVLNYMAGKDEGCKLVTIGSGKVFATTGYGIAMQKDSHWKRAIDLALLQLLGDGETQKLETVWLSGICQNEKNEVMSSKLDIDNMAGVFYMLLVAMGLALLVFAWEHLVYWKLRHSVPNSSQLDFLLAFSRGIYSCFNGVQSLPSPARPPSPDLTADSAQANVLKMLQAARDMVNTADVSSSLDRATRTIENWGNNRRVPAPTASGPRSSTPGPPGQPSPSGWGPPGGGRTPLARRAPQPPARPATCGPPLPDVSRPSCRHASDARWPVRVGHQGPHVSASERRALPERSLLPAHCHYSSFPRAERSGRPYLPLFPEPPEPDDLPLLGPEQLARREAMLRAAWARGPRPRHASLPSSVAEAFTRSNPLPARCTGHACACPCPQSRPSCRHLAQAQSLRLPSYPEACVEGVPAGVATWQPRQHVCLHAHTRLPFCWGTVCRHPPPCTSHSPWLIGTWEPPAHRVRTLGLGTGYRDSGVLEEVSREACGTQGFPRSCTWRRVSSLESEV
TEST_DESCRIPTION: Allosteric modulation of rat GluN2C expressed in Xenopus laevis oocytes assessed as L-glutamate/glycine-induced current response at 100 uM at holding potential -60 mV by two-electrode voltage clamp method relative to L-glutamate/glycine
Type: cell-based
Answer each item with its documented Activity.
Answers are plain numbers, in %.

These solved cases illustrate the format of a correct answer.
[[record]]
smi = "CC(C)C/C=C/c1ccc2cc(C(=O)O)ccc2c1"
measured_metric = "Activity"
experimental_value = 264

[[record]]
smi = "C=C(CCC(C)C)c1ccc2cc(C(=O)O)ccc2c1"
measured_metric = "Activity"
experimental_value = 349

[[record]]
smi = "O=C(O)c1ccc(/C=C/c2ccc3cc(O)c(C(=O)O)cc3c2)cc1"
measured_metric = "Activity"
experimental_value = 85.2

[[record]]
smi = "CCCCOc1ccc2cc(C(=O)O)ccc2c1"
measured_metric = "Activity"
experimental_value = 63

[[record]]
smi = "O=C(O)c1cccc(/C=C/c2ccc3cc(O)c(C(=O)O)cc3c2)c1"
measured_metric = "Activity"
experimental_value = 76.8


Below: the item to evaluate.
**Query** Query Activity on Glutamate receptor ionotropic, NMDA 2C (Rattus norvegicus) (UniProt Q00961) for O=C(O)c1cc2cc(/C=C/c3ccccc3)ccc2oc1=O
**Result** 114
